- TARGET_OR_SYSTEM: HLA A3002 (human)
- ASSAY_COMMENT: 125I-probe competition, purified HLA
- MEASUREMENT_CONDITIONS: remark: other sources report otherwise
MEASURED_METRIC: IC50 (nM)
Kindly provide the numeric value in nM only, without the unit symbol.

The binder identified as TLEKLTNTGLY (modifications not checked) [HPV18.E6.89] registered its IC50 at 476
